// provenance: PubChem BioAssay AID1159580

# key: entry, value: normalized growth
assay: chemical genetic growth profiling, strain panel (AID 1159580);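 note: tested at 20 µM; growth read once vehicle control cultures reached saturation at 30 °C; 1 = growth at the plate median or of vehicle wells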; conditions: S. cerevisiae deletion strains, growth OD, locus YFR019W, strain FAB1, stronger effect = lower value
Hit rate of the full screen: of about 5,500 compounds, about 2,000 (36%) were called active. Not shown: some 18% with an inconclusive outcome. The list shows a part of the results.
readoutType: normalized growth

molecule	readoutType	valueMeasured
O=[N+]([O-])c1cccc(C2CC(c3ccccc3)=Nc3ccccc3S2)c1 (centres undefined)	normalized growth	0.996
COC(=O)C1=C(Nc2ccccc2NS(=O)(=O)c2ccc(C(F)(F)F)cc2Cl)CSC1	normalized growth	0.976
O=C(Nc1ccc(F)cc1F)c1cc(Cl)c(-n2cccc2)c(Cl)c1	normalized growth	0.944
O=C(CSC1=NNC(c2ccccn2)S1)Nc1ccccc1 (centres undefined)	normalized growth	0.966
CC(C)(C)c1cc(C(=O)Nc2ccc3c(c2)OCO3)n(Cc2ccc(F)cc2)n1	normalized growth	0.938
COC(=O)c1sccc1NS(=O)(=O)c1cc(Cl)cc(Cl)c1	normalized growth	0.967
Clc1ccc(SCc2ccsc2-c2ncns2)cc1	normalized growth	0.906
Cc1ccc2nc(-c3ccc4c(c3)OCCO4)cn2c1	normalized growth	0.963
NC(=S)N/N=C1/CCCc2ccccc21	normalized growth	0.925

---

test: chemical genetic growth profiling, strain panel (AID 1159580); details: S. cerevisiae deletion strains, growth OD, locus YBR135W, strain CKS1, stronger effect = lower value
The campaign covered roughly 5,500 compounds. About 2,000 (36%) were called active. Roughly 18% stayed inconclusive and do not appear here. The list shows a part of the results.

smilesRepresentation	normalized growth
COc1c(Br)csc1C(=O)O/N=C(/N)c1cc(C(F)(F)F)cc(C(F)(F)F)c1	0.99
Cc1ccc2nc(-c3ccc4c(c3)OCCO4)cn2c1	0.984
NC(=S)N/N=C1/CCCc2ccccc21	0.939
COC(=O)c1sccc1NS(=O)(=O)c1cc(Cl)cc(Cl)c1	0.958
Cc1c(C)c(C)c(C(=O)c2ccc(N=Cc3cc(Cl)cc(Cl)c3O)cc2)c(C)c1C	0.94
CSc1sc(C(=O)Sc2ccccc2)cc1S(=O)(=O)C(C)C	0.995
OC(COc1ccc(F)cc1)(c1ccc(Cl)cc1)c1ccc(Cl)cc1	0.984
Cc1nn(-c2cccc(Cl)c2)c2oc(=O)cc(C(F)(F)F)c12	0.975
CCOC(=O)/C(C#N)=C(\Nc1ccc(C(=O)OCC)cc1)SC	0.98

---

experiment: chemical genetic growth profiling, strain panel (AID 1159580); details: S. cerevisiae deletion strains, growth OD, locus YJR043C, strain POL32, stronger effect = lower value
About 2,000 (36%) of roughly 5,500 compounds were called active. Another 18% or so got no clear call; they are omitted. The list shows a part of the results.

compound	normalized growth
CC(=O)OC1CCC2(C)C(CC(OC(C)=O)C3(C)C4=CC(=O)OC(c5ccoc5)C4(C)CCC23)C1(C)C (stereo not given)	0.997
CC(=O)O[C@@H]1C=C[C@@]2(C)C(C[C@@H](OC(C)=O)[C@@]3(C)C4=CC(=O)O[C@@H](c5ccoc5)[C@]4(C)CCC23)C1(C)C (stereo not given in full)	1.04
NNCc1cccc(O)c1	0.974
CC[N+](C)(C)c1cccc(O)c1	0.984
CC(C)c1ccc2c(c1)CCC1[C@](C)(CN)CCC[C@]21C (stereo not given in full)	0.635

---

test: chemical genetic growth profiling, strain panel (AID 1159580); details: S. cerevisiae deletion strains, growth OD, locus YHR129C, strain ARP1, stronger effect = lower value
Among all 5,500 compounds or so, about 2,000 (36%) were called active. About 18% were inconclusive and are not listed. The list shows a part of the results.
readoutType: normalized growth

molecule	valueMeasured
OC[C@H]1O[C@@H](O[C@@H]2[C@@H](CO)O[C@](O)(CO)[C@H]2O)[C@H](O)[C@@H](O)[C@H]1O	0.992
OC[C@H]1O[C@@](CO)(O[C@@H]2O[C@H](CO)[C@@H](O)[C@H](O)[C@H]2O)[C@@H](O[C@@H]2O[C@H](CO)[C@@H](O)[C@H](O)[C@H]2O)[C@@H]1O	1.02
CC(=O)O[C@H]1CC[C@@]2(C)C(=CC(=O)C3C4CCC(C(C)CCCC(C)C)[C@@]4(C)CCC32)C1 (some centres undefined)	0.999
CC(C)CCCC(C)[C@H]1CCC2C3C(=O)C=C4C[C@@H](O)CC[C@]4(C)C3CC[C@@]21C (some centres undefined)	1.03

---

test: chemical genetic growth profiling, strain panel (AID 1159580); conditions: S. cerevisiae deletion strains, growth OD, locus YHR142W, strain chs7, stronger effect = lower value
Hit rate of the full screen: of about 5,500 compounds, about 2,000 (36%) were called active. Not shown: some 18% with an inconclusive outcome. Some of the results follow.
Form field: normalized growth (one value per entry).
readoutType: normalized growth

compound	valueMeasured
C=C1c2c(Cl)ccc(O)c2C(O)=C2C(=O)[C@]3(O)C(O)=C(C(N)=O)C(=O)[C@@H](N(C)C)[C@@H]3[C@@H](O)[C@H]12	0.981
O=C(O)c1ccc(S(=O)(=O)N(Cl)Cl)cc1	0.971
NC1=NCCN1CC(=O)O	0.992
O=C(O)c1cccnc1	1.01
NCC(N)C(=O)c1ccccc1 (stereo not given)	1.05
C=C1c2cccc(O)c2C(O)=C2C(=O)[C@]3(O)C(O)=C(C(N)=O)C(=O)[C@@H](N(C)C)[C@@H]3[C@@H](O)[C@H]12	1.05
C[C@H]1c2cccc(O)c2C(O)=C2C(=O)[C@]3(O)C(O)=C(C(N)=O)C(=O)[C@@H](N(C)C)[C@@H]3[C@@H](O)[C@@H]21	0.998
CCCN(CCC)S(=O)(=O)c1ccc(C(=O)O)cc1	1
Nc1ccc(S(=O)(=O)NC(=O)c2ccccc2)cc1	0.997
CS(=O)(=O)c1ccc([C@@H](O)[C@@H](CO)NC(=O)C(Cl)Cl)cc1	1.07

---

assay: chemical genetic growth profiling, strain panel (AID 1159580);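 note: tested at 20 µM; growth read once vehicle control cultures reached saturation at 30 °C; 1 = growth at the plate median or of vehicle wells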; conditions: S. cerevisiae deletion strains, growth OD, locus YLR370C, strain arc18, stronger effect = lower value
Hit rate of the full screen: of about 5,500 compounds, about 2,000 (36%) were called active. Inconclusive results (about 18%) are left out. Some of the results follow.

smilesRepresentation	normalized growth
NC(=O)NC(=O)Cc1ccccc1	0.966
CC(C)=CCc1c2c(c3occ(-c4ccc(O)cc4)c(=O)c3c1O)C=CC(C)(C)O2	0.978
C[n+]1ccccc1/C=N/O	1.01

---

assay: chemical genetic growth profiling, strain panel (AID 1159580);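 note: tested at 20 µM; growth read once vehicle control cultures reached saturation at 30 °C; 1 = growth at the plate median or of vehicle wells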; conditions: S. cerevisiae deletion strains, growth OD, locus YPL256C, strain CLN2
Out of some 5,500 compounds screened, about 2,000 (36%) were called active. Roughly 18% stayed inconclusive and do not appear here. No stated cut-off is given here; in the data, active means normalized growth mostly below about 0.91 (no sharp cut-off); inconclusive means no clear call, values can overlap the other calls; inactive means mostly above about 0.92. The list shows a part of the results.
Labels: active, inactive

molecule	group
CC(C)CCCC(C)[C@H]1CCC2C3CC=C4C[C@@H](O)CC[C@]4(C)C3CC[C@@]21C (some centres undefined)	inactive
Cc1ccc(-n2cccc2)c(NS(=O)(=O)c2ccc(-c3ccno3)s2)c1	active
CC(C)CCCC(C)C1CCC2C3CC(=O)[C@H]4C[C@@H](O)CC[C@]4(C)C3CC[C@]12C (some centres undefined)	inactive
CCN(CC)CCOC(=O)C(c1ccccc1)C1CCCCC1 (centres undefined)	inactive
CC(C)CCCC(C)C1CCC2C3=CC[C@H]4C[C@@H](O)CC[C@]4(C)C3CC[C@@]21C (some centres undefined)	inactive
CC(=O)O[C@H]1CCC2(C)C3=C(CCC2C1(C)C)[C@]1(C)CCC(C(C)CCC=C(C)C)[C@@]1(C)CC3 (some centres undefined)	inactive
CCN(CC)CCOCCOC(=O)C1(c2ccccc2)CCCC1	inactive
CC(C)CCCC(C)C1CCC2C3C[C@@H](O)[C@@]4(O)C[C@@H](O)CC[C@]4(C)C3CC[C@]12C (some centres undefined)	inactive
O=S(=O)(Nc1ccccc1Oc1ccccc1)c1ccc(-c2ccno2)s1	inactive

---

assay: chemical genetic growth profiling, strain panel (AID 1159580);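 note: tested at 20 µM; growth read once vehicle control cultures reached saturation at 30 °C; 1 = growth at the plate median or of vehicle wells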; details: S. cerevisiae deletion strains, growth OD, locus YDR101C, strain arx1, stronger effect = lower value
In all, about 5,500 compounds went through this assay and about 2,000 (36%) were called active. Another 18% or so got no clear call; they are omitted. The list shows a part of the results.
Reported normalized growth is given for each of the following compounds.
readoutType: normalized growth

compound	readoutType	valueMeasured
CC(=O)OC1CCC2(C)C(CC(OC(C)=O)C3(C)C4=CC(=O)OC(c5ccoc5)C4(C)CCC23)C1(C)C (configuration not stated)	normalized growth	1.01 (inactive)
CC(C)c1ccc2c(c1)CCC1C(C)(C(N)=O)CCCC21C (configuration not stated)	normalized growth	0.937 (inactive)
CC(=O)Oc1ccc(C(c2ccc(OC(C)=O)cc2)c2ccccn2)cc1	normalized growth	0.996 (inactive)
CN(C)CCCN1c2ccccc2Sc2ccc(Cl)cc21	normalized growth	0.98 (inactive)
O=P1(N(CCCl)CCCl)NCCCO1 (configuration not stated)	normalized growth	1.02 (inactive)
Oc1c(Cl)cc(Cl)cc1Sc1cc(Cl)cc(Cl)c1O	normalized growth	0.978 (inactive)
CN(C)CCCN1c2ccccc2Sc2ccccc21	normalized growth	1.01 (inactive)
CC12CCC(=O)C=C1CCC1C2[C@@H](O)CC2(C)C1CC[C@]2(O)C(=O)COP(=O)(O)O (some centres not stated)	normalized growth	1.03 (inactive)
CN(C)CCCN1c2ccccc2Sc2ccc(C(F)(F)F)cc21	normalized growth	0.994 (inactive)
CCN(CC)CCOC(=O)C(c1ccccc1)C1CCCCC1 (configuration not stated)	normalized growth	0.964 (inactive)
CC(=O)Oc1ccc(/C=C/c2cc(OC(C)=O)cc(OC(C)=O)c2)cc1	normalized growth	0.987 (inactive)
CC(=O)O[C@@H]1CC[C@@]2(C)C(C[C@@H](OC(C)=O)[C@@]3(C)C4=CC(=O)O[C@@H](c5ccoc5)[C@]4(C)CCC23)C1(C)C (some centres not stated)	normalized growth	1 (inactive)
NC1=NCCN1CC(=O)O	normalized growth	0.996 (inactive)
CC(=O)Oc1ccc(O)cc1	normalized growth	1.02 (inactive)
COc1ccc([C@@H]2CC(=O)c3c(O)cc(O[C@@H]4O[C@H](CO[C@H]5O[C@@H](C)[C@H](O)[C@@H](O)[C@H]5O)[C@@H](O)[C@H](O)[C@H]4O)cc3O2)cc1O	normalized growth	0.968 (inactive)
CC(=O)O[C@@H]1C=C[C@@]2(C)C(C[C@@H](OC(C)=O)[C@@]3(C)C4=CC(=O)O[C@@H](c5ccoc5)[C@]4(C)CCC23)C1(C)C (some centres not stated)	normalized growth	0.0671 (active)
NC(Cn1ccc(=O)c(O)c1)C(=O)O (configuration not stated)	normalized growth	1 (inactive)
CCCOc1ccc2nc(NC(=O)OC)[nH]c2c1	normalized growth	1.01 (inactive)
CNNC	normalized growth	0.989 (inactive)
CC(CCC(=O)O)[C@H]1CCC2C3CC[C@@H]4CC(=O)CC[C@]4(C)C3C=C[C@@]21C (some centres not stated)	normalized growth	0.967 (inactive)
CC(=O)Oc1cccc(O)c1	normalized growth	0.996 (inactive)
CC(C)=CCc1c2c(c3occ(-c4ccc(O)c(O)c4)c(=O)c3c1O)C=CC(C)(C)O2	normalized growth	0.747 (active)
